assayedTarget: human muscarinic M1 receptor (Homo sapiens, UniProt P11229)
Sequence (P11229 1-460): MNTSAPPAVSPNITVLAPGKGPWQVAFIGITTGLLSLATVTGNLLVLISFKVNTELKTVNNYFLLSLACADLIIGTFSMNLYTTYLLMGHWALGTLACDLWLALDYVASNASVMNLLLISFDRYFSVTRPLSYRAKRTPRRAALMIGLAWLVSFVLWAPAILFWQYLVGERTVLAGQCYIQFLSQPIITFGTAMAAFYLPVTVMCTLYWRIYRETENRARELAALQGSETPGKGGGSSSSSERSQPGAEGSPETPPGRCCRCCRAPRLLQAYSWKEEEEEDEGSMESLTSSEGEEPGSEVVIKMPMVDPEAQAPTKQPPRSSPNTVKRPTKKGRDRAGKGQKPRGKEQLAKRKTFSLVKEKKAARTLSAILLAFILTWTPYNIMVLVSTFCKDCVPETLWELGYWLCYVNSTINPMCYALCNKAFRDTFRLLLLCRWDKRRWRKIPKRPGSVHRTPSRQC
testDescription: Alphascreen Surefire phospho-ERK1/2 functional assay, M1
Format: cell-based
measurementConditions: CHO cells stably expressing human M1; phospho-ERK1/2; read-out: pEC50 M1 (converted)
readoutName: EC50 (nM)
Report the value in nM with no unit label.

The cases that follow already have their EC50 on record.
{"compound": "CCOC(=O)N1C2COCC1CC(N1CCC(C(=O)NC3(C)CCC3)CC1)C2 (single isomer, unassigned) [Example 7-1 Isomer 1]", "assayedTarget": "human muscarinic M1 receptor (Homo sapiens, UniProt P11229)", "measurementUnits": "nM", "EC50": 380}
{"compound": "CCOC(=O)N1C2COCC1CC(N1CCC3(CC1)CNC(=O)O3)C2 (single isomer, unassigned) [Example 5-3 Isomer 1]", "assayedTarget": "human muscarinic M1 receptor (Homo sapiens, UniProt P11229)", "measurementUnits": "nM", "EC50": 1450}

Then there is this compound:
QUERY: Need EC50 of CCOC(=O)N1C2COCC1CC(N1CCC(C(=O)NC3(C)CCC3)CC1)C2 (single isomer, unassigned) [Example 7-1 Isomer 2] , thanks.
RESULT: 1740

----------
Recorded log10(EC50) by entry
assayedTarget: human muscarinic M1 receptor (Homo sapiens)
Sequence (P11229 1-460): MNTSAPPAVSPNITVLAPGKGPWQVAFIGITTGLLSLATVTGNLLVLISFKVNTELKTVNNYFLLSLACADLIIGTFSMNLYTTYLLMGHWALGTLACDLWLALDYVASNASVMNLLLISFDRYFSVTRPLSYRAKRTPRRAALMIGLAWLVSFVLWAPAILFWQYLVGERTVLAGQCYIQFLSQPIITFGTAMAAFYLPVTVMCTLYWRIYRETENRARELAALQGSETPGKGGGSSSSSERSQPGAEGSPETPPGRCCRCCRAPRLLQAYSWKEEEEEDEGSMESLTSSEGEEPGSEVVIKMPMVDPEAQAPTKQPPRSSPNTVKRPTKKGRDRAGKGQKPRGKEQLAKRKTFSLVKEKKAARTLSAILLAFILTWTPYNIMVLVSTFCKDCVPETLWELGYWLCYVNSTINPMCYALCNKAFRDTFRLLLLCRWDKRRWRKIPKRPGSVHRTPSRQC
testDescription: Alphascreen Surefire phospho-ERK1/2 functional assay, M1
Format: cell-based
measurementConditions: pEC50 M1, CHO cells stably expressing human M1; phospho-ERK1/2
Hey, these are logged values: log10 of EC50, µM being the unit before logging.

The cases that follow already have their log10(EC50) on record.
{"compound": "CCOC(=O)N1C2COCC1CC(N1CCC3(CC1)C(=O)Nc1ccccc13)C2 (single isomer, unassigned) [Example 5-5 Isomer 2]", "readoutName": "log10(EC50)", "obsValue": -1.27}
{"compound": "CCOC(=O)N1C2COCC1CC(N1CCC(n3cccn3)CC1)C2 (single isomer, unassigned) [Example 1-1 Isomer 1]", "readoutName": "log10(EC50)", "obsValue": -0.37}
{"compound": "CCOC(=O)N1C2COCC1CC(N1CCC(N3CC(F)(F)C[C@@H]3CO)CC1)C2 (single isomer, unassigned) [Example 4-1 Isomer 1]", "readoutName": "log10(EC50)", "obsValue": -0.81}
{"compound": "COC(=O)N1C2COCC1CC(N1CCC(N(CC3(C)CCC3)C(C)=O)CC1)C2 (single isomer, unassigned) [Example 8-1 Isomer 1]", "readoutName": "log10(EC50)", "obsValue": -1.07}

QUERY: Need log10(EC50) of COC(=O)N1C2COCC1CC(N1CCC(N(Cc3ccccc3)C(C)=O)CC1)C2 (single isomer, unassigned) [Example 8-2 Isomer 1] , thanks.
RESULT: -1.10

QUERY: Need log10(EC50) of CCOC(=O)N1C2COCC1CC(N1CCC(N3CCCCCC3=O)CC1)C2 (single isomer, unassigned) [Example 6-7 Isomer 1] , thanks.
RESULT: -0.19

QUERY: Need log10(EC50) of CCOC(=O)N1C2COCC1CC(N1CCC(n3cc(C)cn3)CC1)C2 (single isomer, unassigned) [Example 1-3 Isomer 2] , thanks.
RESULT: -0.50

QUERY: Need log10(EC50) of CCOC(=O)N1C2COCC1CC(N1CCC(N(CC3(C)CCC3)C(C)=O)CC1)C2 (single isomer, unassigned) [Example 6-4 Isomer 2] , thanks.
RESULT: -1.47

QUERY: Need log10(EC50) of CCOC(=O)N1C2COCC1CC(N1CCC3(CC1)CNC(=O)C3)C2 (single isomer, unassigned) [Example 5-2 Isomer 1] , thanks.
RESULT: -0.50
